- Tested on: c-Met (cytoplasmic domain) (Homo sapiens, UniProt P08581)
- Construct: 10 ng/mL c-Met (cytoplasmic domain, Invitrogen Corporation #PV3143); purchased Invitrogen Corporation PV3143
- Sequence (P08581 956-1390 limits assumed): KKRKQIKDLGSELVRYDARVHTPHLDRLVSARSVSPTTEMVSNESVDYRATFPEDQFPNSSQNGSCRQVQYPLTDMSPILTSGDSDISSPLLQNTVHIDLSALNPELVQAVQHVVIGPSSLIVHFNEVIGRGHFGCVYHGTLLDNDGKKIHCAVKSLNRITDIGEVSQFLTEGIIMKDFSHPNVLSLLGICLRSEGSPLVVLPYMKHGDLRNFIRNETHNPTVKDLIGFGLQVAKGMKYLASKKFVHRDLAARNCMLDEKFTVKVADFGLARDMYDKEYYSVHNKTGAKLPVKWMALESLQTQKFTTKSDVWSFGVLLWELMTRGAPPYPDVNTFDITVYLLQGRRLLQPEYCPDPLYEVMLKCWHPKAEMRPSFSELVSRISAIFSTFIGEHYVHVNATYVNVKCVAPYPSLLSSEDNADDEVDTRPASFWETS
- Experimental protocol: c-Met Kinase Assay (same methods as for ALK, with modifications)
- Type: biochemical
- Condition details: 1 μM ATP (Km level), 10 ng/mL c-Met; read-out: cMet Activity (c-Met kinase inhibition, IC50 class)
- Method: Briefly, each 96-well plate was coated with 100 μL/well of 10 μg/mL substrate (phospholipase C-γ) in Tris-buffered saline (TBS). […] The reaction was initiated by adding enzyme (30 ng/ml ALK) and was allowed to proceed at 37° C. for 15 minutes. Detection of the phosphorylated product was performed by adding 100 μl/well of Eu-N1 labeled PT66 antibody (Perkin Elmer # AD0041). Data analysis was performed using ActivityBase (IDBS, Guilford, UK). […]
pIC50: −log10 of the molar value.
pIC50 values for the compounds below.

Some compounds with recorded pIC50:
[[record]]
compound = "CCCNC(=O)c1ccccc1Nc1nc(Nc2ccc3c(c2)C(C)(C)CCC(=O)N3)ncc1Cl [Example 1022]"
tested_on = "c-Met (cytoplasmic domain) (Homo sapiens, UniProt P08581)"
readout_kind = "pIC50"
measured_result = "6.00 to 7.00"

[[record]]
compound = "COc1cc2c(cc1Nc1ncc(Cl)c(N[C@H]3[C@@H](C(N)=O)[C@@H]4C=C[C@H]3C4)n1)CCN(CC(=O)N(C)C)CC2 [Example 1123]"
tested_on = "c-Met (cytoplasmic domain) (Homo sapiens, UniProt P08581)"
readout_kind = "pIC50"
measured_result = "< 5.00"

[[record]]
compound = "CCN1C(=O)CCCc2cc(Nc3ncc(Cl)c(Nc4ccccc4-n4cccn4)n3)c(OC)cc21 [Example 1317]"
tested_on = "c-Met (cytoplasmic domain) (Homo sapiens, UniProt P08581)"
readout_kind = "pIC50"
measured_result = "< 5.00"

[[record]]
compound = "CCN1C(=O)CCCc2ccc(Nc3ncc(Cl)c(Nc4cccc(CC#N)c4)n3)cc21 [Example 1229]"
tested_on = "c-Met (cytoplasmic domain) (Homo sapiens, UniProt P08581)"
readout_kind = "pIC50"
measured_result = "6.00 to 7.00"

[[record]]
compound = "COc1cc2c(cc1Nc1ncc(Cl)c(Nc3ccccc3S(=O)(=O)C(C)C)n1)CCC(N1CCN(C)CC1)CC2 (stereo not shown) [Example 1100]"
tested_on = "c-Met (cytoplasmic domain) (Homo sapiens, UniProt P08581)"
readout_kind = "pIC50"
measured_result = "5.00 to 6.00"

[[record]]
compound = "COc1cc2c(cc1Nc1ncc(Cl)c(Nc3ccccc3S(=O)(=O)N(C)C)n1)CCN(Cc1ncco1)CC2 [Example 1170]"
tested_on = "c-Met (cytoplasmic domain) (Homo sapiens, UniProt P08581)"
readout_kind = "pIC50"
measured_result = "5.00 to 6.00"


Consider the record given below.
Reported pIC50 for CCN1CCc2cc(Nc3ncc(Cl)c(Nc4ccc(N5CCOCC5)cc4OC)n3)c(OC)cc2CC1 [Example 1129] : what is it? < 5.00

----------
IC50 values for the compounds below.
- Tested on: baculovirus-expressed ALK (Homo sapiens, UniProt Q9UM73)
- Construct: host or cells: baculovirus expression system
- Sequence (Q9UM73 19-1620): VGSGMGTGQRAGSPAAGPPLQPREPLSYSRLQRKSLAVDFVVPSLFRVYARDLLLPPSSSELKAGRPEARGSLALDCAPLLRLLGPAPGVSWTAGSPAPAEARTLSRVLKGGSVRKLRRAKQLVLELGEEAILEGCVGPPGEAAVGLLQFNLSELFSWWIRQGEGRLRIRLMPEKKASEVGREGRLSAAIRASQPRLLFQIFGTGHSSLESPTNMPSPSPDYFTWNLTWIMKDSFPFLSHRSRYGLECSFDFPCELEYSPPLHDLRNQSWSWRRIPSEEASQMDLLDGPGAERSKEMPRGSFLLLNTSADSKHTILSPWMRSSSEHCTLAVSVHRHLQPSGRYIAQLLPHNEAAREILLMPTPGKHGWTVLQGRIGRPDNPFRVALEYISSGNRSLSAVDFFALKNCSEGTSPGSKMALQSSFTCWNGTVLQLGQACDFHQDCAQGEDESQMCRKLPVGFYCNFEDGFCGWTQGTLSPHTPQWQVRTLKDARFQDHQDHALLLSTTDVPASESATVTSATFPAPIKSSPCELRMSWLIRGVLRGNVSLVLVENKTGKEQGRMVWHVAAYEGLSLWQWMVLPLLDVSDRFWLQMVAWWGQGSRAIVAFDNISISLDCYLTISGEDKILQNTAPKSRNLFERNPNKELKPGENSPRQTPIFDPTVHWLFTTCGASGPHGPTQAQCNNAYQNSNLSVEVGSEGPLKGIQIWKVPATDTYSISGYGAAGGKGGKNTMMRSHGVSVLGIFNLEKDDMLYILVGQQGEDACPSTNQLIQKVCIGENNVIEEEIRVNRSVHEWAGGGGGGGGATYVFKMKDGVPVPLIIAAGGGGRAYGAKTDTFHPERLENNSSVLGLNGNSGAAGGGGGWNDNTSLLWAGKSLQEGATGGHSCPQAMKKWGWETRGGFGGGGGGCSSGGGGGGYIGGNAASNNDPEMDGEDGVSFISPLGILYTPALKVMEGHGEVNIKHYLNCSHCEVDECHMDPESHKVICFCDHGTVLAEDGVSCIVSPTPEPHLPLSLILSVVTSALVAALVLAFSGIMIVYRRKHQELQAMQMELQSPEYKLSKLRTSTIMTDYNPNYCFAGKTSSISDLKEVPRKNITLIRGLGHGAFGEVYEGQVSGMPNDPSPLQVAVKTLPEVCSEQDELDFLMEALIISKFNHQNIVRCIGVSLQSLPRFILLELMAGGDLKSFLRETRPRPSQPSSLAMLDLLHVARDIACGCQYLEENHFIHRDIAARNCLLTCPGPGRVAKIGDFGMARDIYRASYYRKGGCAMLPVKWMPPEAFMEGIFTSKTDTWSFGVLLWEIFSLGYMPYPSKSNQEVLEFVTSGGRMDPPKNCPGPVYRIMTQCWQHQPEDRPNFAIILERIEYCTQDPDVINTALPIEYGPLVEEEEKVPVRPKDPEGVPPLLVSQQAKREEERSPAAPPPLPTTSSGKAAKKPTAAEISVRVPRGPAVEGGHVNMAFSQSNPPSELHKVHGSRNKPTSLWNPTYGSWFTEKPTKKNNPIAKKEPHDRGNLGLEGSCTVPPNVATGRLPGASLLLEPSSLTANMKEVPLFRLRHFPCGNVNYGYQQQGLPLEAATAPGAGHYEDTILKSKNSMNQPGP
- Experimental protocol: ALK Kinase Assay (ELISA-type, time-resolved fluorescence)
- Assay type: biochemical
- Condition details: ALK kinase inhibition, 1 μM ATP (Km level); read-out: ALK Activity

[[record]]
compound = "CCN1CC2CCC(C1)c1cc(Nc3ncc(Cl)c(Nc4ccccc4S(=O)(=O)NC)n3)ccc12 (centres unmarked) [Example 272]"
measured_result = "< 100 nM"

[[record]]
compound = "CCN1CCc2ccc(Nc3ncc(C#N)c(Nc4ccccc4C(=O)NC)n3)cc2CC1 [Example 194]"
measured_result = "< 100 nM"

[[record]]
compound = "COCCN1C2CCC1c1cc(Nc3ncc(Cl)c(Nc4ccccc4NS(C)(=O)=O)n3)ccc1C2 (centres unmarked) [Example 76]"
measured_result = "< 100 nM"

[[record]]
compound = "C#CCN1CC2CCC(C1)c1cc(Nc3ncc(Cl)c(Nc4ccccc4S(=O)(=O)N(C)CC#C)n3)ccc12 (centres unmarked) [Example 288]"
measured_result = "< 100 nM"

[[record]]
compound = "CN1CCN(C)c2cccc(Nc3ncc(Cl)c(Nc4ccccc4NS(C)(=O)=O)n3)c2C1=O [Example 215]"
measured_result = "> 10000 nM"


Reported IC50 for CCN1CCc2c(Nc3ncc(Cl)c(Nc4ccccc4C(=O)NC)n3)ccc(OC)c2CC1 [Example 154] : what is it? 100 to 1000 nM

Reported IC50 for CNC(=O)c1ccccc1Nc1nc(Nc2ccc3c(c2)CCN(CCOC)CC3)ncc1Cl [Example 34] : what is it? < 100 nM

Reported IC50 for CCN1C(=O)C(C)(C)CCc2c1ccc(Nc1ncc(Cl)c(Nc3ccc(N4CCOCC4)cc3OC)n1)c2OC [Example 141] : what is it? 100 to 1000 nM

----------
- Tested on: baculovirus-expressed ALK (Homo sapiens)
- Construct: host or cells: baculovirus expression system
- Experimental protocol: ALK Kinase Assay (ELISA-type, time-resolved fluorescence)
- Assay type: biochemical
- Condition details: ALK kinase inhibition, 1 μM ATP (Km level); read-out: ALK Activity
Readout kind: IC50

Some compounds with recorded IC50:
[[record]]
compound = "CCN1CC2CC(C1)c1cc(Nc3ncc(Cl)c(NC4C5C=CC(C5)C4C(N)=O)n3)ccc12 (stereo not drawn)"
readout_kind = "IC50"
measured_result = "100 to 1000 nM"

[[record]]
compound = "CNC(=O)c1ccccc1Nc1nc(Nc2ccc3c(c2)COC[C@@H]2CCCN32)ncc1Cl"
readout_kind = "IC50"
measured_result = "< 100 nM"


Hi! What's the reported IC50 for CNC(=O)c1ccccc1Nc1nc(Nc2ccc3c(c2OC)CCCC(=O)N3CCOC)ncc1Cl on baculovirus-expressed ALK (Homo sapiens)? < 100 nM

Hi! What's the reported IC50 for CO[C@@H](CN1CCc2ccc(Nc3ncc(Cl)c(N[C@@H]4CCCC[C@H]4NS(C)(=O)=O)n3)cc2CC1)C(F)(F)F on baculovirus-expressed ALK (Homo sapiens)? < 100 nM

Hi! What's the reported IC50 for CC1(C)CCC(=O)Nc2ccc(Nc3ncc(Cl)c(Nc4ccccc4-c4ncc[nH]4)n3)cc21 on baculovirus-expressed ALK (Homo sapiens)? < 100 nM

Hi! What's the reported IC50 for CNC(=O)c1ccccc1Nc1nc(Nc2ccc3c(c2)CCCC(=O)N3)ncc1Cl on baculovirus-expressed ALK (Homo sapiens)? < 100 nM

Hi! What's the reported IC50 for CNC(=O)c1cccc(F)c1Nc1nc(Nc2ccc3c(c2)CCCC(=O)N3CCOC)ncc1Cl on baculovirus-expressed ALK (Homo sapiens)? < 100 nM

Hi! What's the reported IC50 for CNC(=O)c1ccccc1Nc1nc(Nc2ccc3c(c2)CCCC(=O)N3C)ncc1Br on baculovirus-expressed ALK (Homo sapiens)? < 100 nM

Hi! What's the reported IC50 for CS(=O)(=O)N[C@@H]1CCCC[C@H]1Nc1nc(Nc2ccc3c(c2)C2CCC(C3)N2)ncc1Cl (stereo partly drawn) on baculovirus-expressed ALK (Homo sapiens)? 1000 to 10000 nM

----------
pIC50 values for the compounds below.
- Tested on: baculovirus-expressed ALK (Homo sapiens)
- Construct: host or cells: baculovirus expression system
- Experimental protocol: ALK Kinase Assay (ELISA-type, time-resolved fluorescence)
- Type: biochemical
- Condition details: ALK kinase inhibition, 1 μM ATP; read-out: ALK Activity
pIC50: −log10 of the molar value.

Some compounds with recorded pIC50:
[[record]]
compound = "COc1cc2c(cc1Nc1ncc(Cl)c(N[C@@H]3CCCC[C@H]3NS(C)(=O)=O)n1)NC(=O)CN(CC1CC1)C2 [Example 1666]"
tested_on = "baculovirus-expressed ALK (Homo sapiens)"
measured_result = "> 7.00"

[[record]]
compound = "C#CCNC(=O)c1cccc(F)c1Nc1nc(Nc2ccc3c(c2)OCCCN3C(=O)CN2CCCC2)ncc1Cl [Example 1716]"
tested_on = "baculovirus-expressed ALK (Homo sapiens)"
measured_result = "6.00 to 7.00"


Reported pIC50 for CN1C(=O)OCCc2cc(Nc3ncc(Cl)c(Nc4ccccc4OCC#N)n3)ccc21 [Example 1748] : what is it? > 7.00

Reported pIC50 for COCCN1CCc2ccc(Nc3ncc(Cl)c(Nc4ccccc4OCCN4CCOCC4)n3)cc2CC1 [Example 1466] : what is it? 5.00 to 6.00

Reported pIC50 for CCN1C(=O)CCC(C)(C)c2ccc(Nc3ncc(Cl)c(Nc4c(F)cccc4OCC#N)n3)cc21 [Example 1520] : what is it? > 7.00

Reported pIC50 for COCCN1CCc2ccc(Nc3ncc(Cl)c(Nc4c(F)cccc4C(=O)NCC4CC4)n3)cc2CC1 [Example 1711] : what is it? 6.00 to 7.00

Reported pIC50 for CNC(=O)c1scc(C)c1Nc1nc(Nc2ccc3c(c2)C(C)(C)CCC(=O)N3)ncc1Cl [Example 1572] : what is it? 6.00 to 7.00

All figures here come from patent US8148391B2.
